# System: CCRF-CEM
# assay-explanation: Antiproliferative activity against human CEM cells assessed as growth inhibition measured after 72 hrs by calcein AM dye-based fluorescence assay
# Assay type: functional
Lab note: cut-off is 40 µM. Strictly less in GI50 is condition met. Exactly 40 µM or more is condition not met.

Problem: For the compound `CC(C)C[C@H](NC(=O)c1cc(Cl)ccc1O)C(=O)N[C@@H](CC(C)C)C(=O)Nc1nccs1` , is GI50 under 40 µM?
condition met

Likewise for `COc1ccc(NC(=O)[C@H](CC(C)C)NC(=O)[C@H](CC(C)C)NC(=O)c2cc(Cl)ccc2OCc2ccccc2)cc1` ?
condition not met

Now try `O=C(N[C@@H](Cc1ccccc1)C(=O)N[C@@H](Cc1ccccc1)C(=O)Nc1ccc(Cl)c(Cl)c1)c1cc(Cl)ccc1O` .
condition met

* * *

# Test system: K562
# assay-explanation: Antiproliferative activity against human K562 cells assessed as growth inhibition measured after 72 hrs by calcein AM dye-based fluorescence assay
# Type: functional
Here, each record is paired with measured GI50 data.
Answer in µM, number only, no unit symbol.

> print(dat)
                                smiles.code  numeric.result
1  CC(C)C[C@H](NC(=O)c1cc(Cl)ccc1O)C(=O)Nc1ccc(C(F)(F)F)cc1               5
2  O=C(N[C@@H](Cc1ccccc1)C(=O)N[C@@H](Cc1ccccc1)C(=O)Nc1ccc(C(F)(F)F)cc1)c1cc(Cl)ccc1OCc1ccccc1            12.7
3  CC(C)C[C@H](NC(=O)c1cc(Cl)ccc1OCc1ccccc1)C(=O)N[C@@H](CC(C)C)C(=O)N1CCOCC1              21
4  CC(C)C[C@H](NC(=O)c1cc(Cl)ccc1O)C(=O)N[C@@H](CC(C)C)C(=O)NC1CCCCC1            55.7
5  CC(C)C[C@H](NC(=O)c1cc(Cl)ccc1OCc1ccccc1)C(=O)N[C@@H](CC(C)C)C(=O)Nc1ccccc1            71.2
6  CC(C)C[C@H](NC(=O)c1cc(Cl)ccc1OCc1ccccc1)C(=O)N[C@@H](Cc1ccccc1)C(=O)Nc1ccc(Cl)c(Cl)c1            57.5
7  O=C(N[C@@H](Cc1ccccc1)C(=O)Nc1ccc(C(F)(F)F)cc1)c1cc(Cl)ccc1O             5.2
8  COc1ccc(NC(=O)[C@H](CC(C)C)NC(=O)[C@H](CC(C)C)NC(=O)c2cc(Cl)ccc2OCc2ccccc2)cc1            68.3

Quick one: GI50 for `CC(C)C[C@H](NC(=O)c1cc(Cl)ccc1O)C(=O)N[C@@H](CC(C)C)C(=O)Nc1ccc(Cl)c(Cl)c1` ?
3.2

Try this molecule too: `O=C(N[C@@H](Cc1ccccc1)C(=O)N[C@@H](Cc1ccccc1)C(=O)Nc1ccc(C(F)(F)F)cc1)c1cc(Cl)ccc1O`
5.1

Now consider `CC(C)C[C@H](NC(=O)c1cc(Cl)ccc1O)C(=O)N[C@@H](CC(C)C)C(=O)Nc1nccs1` and answer again.
31.1

Repeat for the following molecule: `CC(C)C[C@H](NC(=O)c1cc(Cl)ccc1O)C(=O)N[C@@H](CC(C)C)C(=O)Nc1ccccc1`
20.1

Can you check `CC(C)C[C@H](NC(=O)c1cc(Cl)ccc1OCc1ccccc1)C(=O)N[C@@H](CC(C)C)C(=O)NC1CCCCC1` next?
19.8

Queued: `O=C(N[C@@H](Cc1ccccc1)C(=O)N[C@@H](Cc1ccccc1)C(=O)Nc1ccc(Cl)c(Cl)c1)c1cc(Cl)ccc1O`
5.8

Entry to check: `Cc1ccc(NC(=O)[C@H](CC(C)C)NC(=O)[C@H](CC(C)C)NC(=O)c2cc(Cl)ccc2O)cc1`
30.7

Would you mind doing `Cc1ccc(NC(=O)[C@H](CC(C)C)NC(=O)[C@H](CC(C)C)NC(=O)c2cc(Cl)ccc2OCc2ccccc2)cc1` as well?
87.7

* * *

Listing: GI50 of selected compounds
# System: K562
# assay-explanation: Antiproliferative activity against human K562 cells assessed as growth inhibition measured after 72 hrs by calcein AM dye-based fluorescence assay
# Format: functional
Note: unit µM is implicit; provide only the numeric part.

> print(dat)
                                smiles.code  measure.unit  numeric.result
1  COc1ccc(NC(=O)[C@H](CC(C)C)NC(=O)[C@H](CC(C)C)NC(=O)c2cc(Cl)ccc2O)cc1            µM              51
2  O=C(N[C@@H](Cc1ccccc1)C(=O)N[C@@H](Cc1ccccc1)C(=O)Nc1ccc(Cl)c(Cl)c1)c1cc(Cl)ccc1OCc1ccccc1            µM             9.9
3  CC(C)C[C@H](NC(=O)c1cc(Cl)ccc1OCc1ccccc1)C(=O)N[C@@H](CC(C)C)C(=O)Nc1ccc(C(F)(F)F)cc1            µM            74.6

// moving on: another record for GI50
Find GI50 (K562) for the entry `CC(C)C[C@H](NC(=O)c1cc(Cl)ccc1O)C(=O)N[C@@H](CC(C)C)C(=O)Nc1ccc(C(F)(F)F)cc1`
7.5

* * *

# Test system: G-361
# assay-explanation: Antiproliferative activity against human G361 cells assessed as growth inhibition measured after 72 hrs by calcein AM dye-based fluorescence assay
# Format: functional
readout: GI50

Below: 3 molecules and their reported GI50.
> print(dat)
                                smiles.code   result
1  O=C(N[C@@H](Cc1ccccc1)C(=O)N[C@@H](Cc1ccccc1)C(=O)Nc1ccc(Cl)c(Cl)c1)c1cc(Cl)ccc1O   4.5 µM
2  CC(C)C[C@H](NC(=O)c1cc(Cl)ccc1O)C(=O)N[C@@H](CC(C)C)C(=O)Nc1ccc(Cl)c(Cl)c1   5.2 µM
3  CC(C)C[C@H](NC(=O)c1cc(Cl)ccc1O)C(=O)N[C@@H](CC(C)C)C(=O)Nc1ccc(C(F)(F)F)cc1  11.5 µM

Okay, now this molecule:
What does the record list as GI50 for `O=C(N[C@@H](Cc1ccccc1)C(=O)N[C@@H](Cc1ccccc1)C(=O)Nc1ccc(C(F)(F)F)cc1)c1cc(Cl)ccc1O` ?
5.1 µM

* * *

# Test system: CCRF-CEM
# assay-explanation: Antiproliferative activity against human CEM cells assessed as growth inhibition measured after 72 hrs by calcein AM dye-based fluorescence assay
# Assay type: functional
readout: GI50 (µM)
Answer with a number only, understood to be in µM.

> print(dat)
                                smiles.code  numeric.result
1  CC(C)C[C@H](NC(=O)c1cc(Cl)ccc1OCc1ccccc1)C(=O)N[C@@H](CC(C)C)C(=O)Nc1ccc(C(F)(F)F)cc1            59.9
2  CC(C)C[C@H](NC(=O)c1cc(Cl)ccc1O)C(=O)N[C@@H](CC(C)C)C(=O)Nc1ccc(C(F)(F)F)cc1             6.2
3  O=C(N[C@@H](Cc1ccccc1)C(=O)Nc1ccc(C(F)(F)F)cc1)c1cc(Cl)ccc1O             4.5

Looking for the measured GI50 of `CC(C)C[C@H](NC(=O)c1cc(Cl)ccc1OCc1ccccc1)C(=O)N[C@@H](CC(C)C)C(=O)Nc1ccc(Cl)c(Cl)c1` , can you help?
56.4

Please do the same for `CC(C)C[C@H](NC(=O)c1cc(Cl)ccc1OCc1ccccc1)C(=O)N[C@@H](CC(C)C)C(=O)Nc1ccccc1` as well.
48.9

Next entry: `CC(C)C[C@H](NC(=O)c1cc(Cl)ccc1O)C(=O)N[C@@H](CC(C)C)C(=O)Nc1ccc(Cl)c(Cl)c1`
2.6

Check `CC(C)C[C@H](NC(=O)c1cc(Cl)ccc1OCc1ccccc1)C(=O)N[C@@H](CC(C)C)C(=O)N1CCOCC1` too.
20.1

// repeat for `Cc1ccc(NC(=O)[C@H](CC(C)C)NC(=O)[C@H](CC(C)C)NC(=O)c2cc(Cl)ccc2O)cc1` and report
13.2

Item: `CC(C)C[C@H](NC(=O)c1cc(Cl)ccc1O)C(=O)N[C@@H](CC(C)C)C(=O)Nc1ccccc1`
10.2

* * *

# System: MCF7
# assay-explanation: Antiproliferative activity against human MCF7 cells assessed as growth inhibition measured after 72 hrs by calcein AM dye-based fluorescence assay
# Format: functional
readout: GI50 (µM)
Quick note: give the figure in µM, leave out the unit.

Consider the following illustrative entries.
> print(dat)
                                smiles.code  target.desc  measure.unit  numeric.result
1  CC(C)C[C@H](NC(=O)c1cc(Cl)ccc1O)C(=O)N[C@@H](CC(C)C)C(=O)Nc1ccc(Cl)c(Cl)c1         MCF7            µM             4.1
2  O=C(N[C@@H](Cc1ccccc1)C(=O)N[C@@H](Cc1ccccc1)C(=O)Nc1ccc(Cl)c(Cl)c1)c1cc(Cl)ccc1O         MCF7            µM             5.2
3  O=C(N[C@@H](Cc1ccccc1)C(=O)N[C@@H](Cc1ccccc1)C(=O)Nc1ccc(C(F)(F)F)cc1)c1cc(Cl)ccc1O         MCF7            µM             5.6

From here, focus on the item given below.
Fill in the blank: the reported GI50 of `CC(C)C[C@H](NC(=O)c1cc(Cl)ccc1O)C(=O)N[C@@H](CC(C)C)C(=O)Nc1ccc(C(F)(F)F)cc1` is ____.
5.3
